System: Fibroblast
assay_overview: Multiplex assay against human fibroblast
Type: toxicity, cell-based
recorded_conditions: 24 h, 1 µM, compound concentration 1 uM, replicate 1
Classify: yes when Population Mitotic Cells (%) is strictly less than 30%; no when Population Mitotic Cells (%) is not.

{"compound": "CN1C(=O)[C@@H](NC(=O)c2cc3ccccc3[nH]2)N=C(c2ccccc2)c2ccccc21 [DEVAZEPIDE]", "test_target": "Fibroblast", "assigned_label": "no"}
{"compound": "CC(C)c1cc(Nc2nc(N3CCC[C@H](N)C3)ncc2C(N)=O)cc(C(C)C)n1", "test_target": "Fibroblast", "assigned_label": "no"}
{"compound": "NC(=O)c1ccc2nc(-c3ccc(C4(N)CCC4)cc3)c(-c3ccccc3)n2n1", "test_target": "Fibroblast", "assigned_label": "yes"}
{"compound": "CCOC(=O)CCNc1cc(N2CCc3ccccc3CC2)nc(-c2ccccn2)n1", "test_target": "Fibroblast", "assigned_label": "yes"}
{"compound": "N#Cc1cccc(C(=O)Nc2cc(-c3ccccc3)nn2-c2ccccc2)c1", "test_target": "Fibroblast", "assigned_label": "no"}
{"compound": "Oc1cccc(-c2nc(N3CCOCC3)c3oc4ncccc4c3n2)c1", "test_target": "Fibroblast", "assigned_label": "no"}
{"compound": "CCCCN(CC)c1nc(C)nc2c1c(C)cn2-c1c(C)cc(C)cc1C.Cl", "test_target": "Fibroblast", "assigned_label": "no"}
{"compound": "Cc1c(Nc2ccc(S(=O)(=O)N3CCN(C)CC3)cc2F)nc2ccc(Nc3cnn(C4CC4)c3)cn2c1=O", "test_target": "Fibroblast", "assigned_label": "yes"}
{"compound": "Cc1ccc(NC(=O)Nc2cc(C(F)(F)F)ccc2F)cc1Nc1ccc2c(c1)NC(=O)/C2=C\\c1ccc[nH]1", "test_target": "Fibroblast", "assigned_label": "no"}
{"compound": "N#CCNC(=O)c1ccc(-c2ccnc(Nc3ccc(N4CCOCC4)cc3)n2)cc1", "test_target": "Fibroblast", "assigned_label": "no"}
{"compound": "CCOc1ccn(-c2ccc(F)cc2)c(=O)c1C(=O)Nc1ccc(Oc2ccnc(N)c2Cl)c(F)c1", "test_target": "Fibroblast", "assigned_label": "yes"}
{"compound": "CC[C@@H]1C(=O)N(C)c2cnc(Nc3ccc(C(=O)NC4CCN(C)CC4)cc3OC)nc2N1C1CCCC1", "test_target": "Fibroblast", "assigned_label": "yes"}
{"compound": "COc1cc(Nc2ccnc3ccc(Br)cc23)cc(OC)c1OC", "test_target": "Fibroblast", "assigned_label": "yes"}
{"compound": "C[C@@H](Oc1cc(-n2cnc3ccc(CN4CCN(C)CC4)cc32)sc1C(N)=O)c1ccccc1C(F)(F)F", "test_target": "Fibroblast", "assigned_label": "yes"}
{"compound": "CCCCCNC(=N)N/N=C/c1c[nH]c2ccc(OC)cc12.O=C(O)/C=C\\C(=O)O [TEGASEROD MALEATE]", "test_target": "Fibroblast", "assigned_label": "no"}
{"compound": "CC(C)[C@H](CO)Nc1nc(Nc2cccc(Cl)c2)c2ncn(C(C)C)c2n1", "test_target": "Fibroblast", "assigned_label": "no"}
{"compound": "Cl.Cn1c2c(c3ccc(Cl)c(Cl)c31)C(C#N)C1(CCNCC1)NC2=O (stereo not drawn)", "test_target": "Fibroblast", "assigned_label": "no"}
